# assayed system: Voltage-gated potassium channel subunit beta-2 (Rattus norvegicus) (UniProt P62483)
# Sequence (P62483 whole entry, looked up): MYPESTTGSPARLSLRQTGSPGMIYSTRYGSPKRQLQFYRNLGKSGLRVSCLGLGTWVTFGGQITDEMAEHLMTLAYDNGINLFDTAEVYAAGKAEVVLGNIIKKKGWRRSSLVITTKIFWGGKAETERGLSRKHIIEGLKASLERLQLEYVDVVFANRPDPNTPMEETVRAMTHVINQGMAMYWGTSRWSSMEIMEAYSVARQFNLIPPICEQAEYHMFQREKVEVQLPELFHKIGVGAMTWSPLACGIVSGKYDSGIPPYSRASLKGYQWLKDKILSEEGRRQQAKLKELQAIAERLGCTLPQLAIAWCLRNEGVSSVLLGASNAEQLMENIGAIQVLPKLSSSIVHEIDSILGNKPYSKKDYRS
# experimental details: KvBeta enzyme negative modulators, primary screen, biochemical, NADPH fluorescence (AID 622);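 also: slope of raw intensity against log time taken from 70 to 1610 s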
# test conditions: recombinant KvBeta, 4-cyanobenzaldehyde reduction, at 10 µM, active compounds read high
property label: fluorescence slope
No unit in the answer, please; the number alone is enough.

## Task What value of fluorescence slope has been reported for the following compound? CCOC(=O)C1=C(C)OC(N)=C(C#N)C1c1cc2ccccc2nc1N1CCCCC1 (stereo not drawn)
## Result -0.315

## Task Moving on to the next compound: CC(C)OC(=O)CSc1nnc(-c2ccccn2)n1-c1ccccc1
## Result -0.429

## Task Moving on to the next compound: CN(CCNC(=O)c1ccc(/C=N/O)nc1)Cc1ccccc1
## Result -0.479

## Task Moving on to the next compound: N#Cc1nc(COc2ccccc2F)oc1NCCCn1ccnc1
## Result -0.414

## Task Moving on to the next compound: Cc1cccc(-n2c(=O)cc(N3CCN(c4ccc(F)cc4)CC3)[nH]c2=O)c1
## Result -0.448

## Task Moving on to the next compound: CC(C)COC(=O)N(C)c1ccc(C(O)(C(F)(F)F)C(F)(F)F)cc1
## Result -0.618

## Task Moving on to the next compound: CCOc1ccc(N(C(C)=O)C2C=CS(=O)(=O)C2)cc1 (stereo not drawn)
## Result -0.496

## Task Moving on to the next compound: COC(=O)/C=c1/s/c(=C(/C#N)C(=O)N2CCCCC2)n(-c2ccccc2)c1=O
## Result -0.546

## Task Moving on to the next compound: Cc1c(C(=O)OCc2ccccc2)[nH]c2c1C(=O)CC(c1ccco1)C2 (stereo not drawn)
## Result -0.569

## Task Moving on to the next compound: Cc1sc(-n2c(C)ccc2C)c(C#N)c1C
## Result -0.505

## Task Moving on to the next compound: OC1(c2cccc(C(F)(F)F)c2)CCN(c2ccc(-c3ccccc3)nn2)CC1
## Result -0.456

## Task Moving on to the next compound: Cc1nc(NC(=O)c2ccccc2)sc1-c1csc(NCc2ccco2)n1
## Result -0.185

## Task Moving on to the next compound: CCOc1ncccc1C(=O)Nc1ccc(Cl)cc1
## Result -0.44

## Task Moving on to the next compound: COCc1nnc(NC(=O)c2ccc(S(=O)(=O)N(C)c3ccccc3)cc2)o1
## Result -0.575

## Task Moving on to the next compound: CCCOC(=O)CSC1=C(C#N)C(c2ccc3c(c2)OCO3)CC(=O)N1 (stereo not drawn)
## Result -0.487

## Task Moving on to the next compound: COc1cccc(-c2nc(N3CCCCC3C)c3ccccc3n2)c1O (stereo not drawn)
## Result -0.465

## Task Moving on to the next compound: Cc1cc(Cl)ccc1OCCCC(=O)NO
## Result -0.31

## Task Moving on to the next compound: CC1=C(C(=O)OC2CCCCCC2)C(c2ccc(C)o2)C2=C(CCCC2=O)N1 (stereo not drawn)
## Result -0.572

## Task Moving on to the next compound: CC(NC(=O)CSc1nc2c(cc1C#N)CN(C)CC2)c1ccccc1 (stereo not drawn)
## Result -0.429

## Task Moving on to the next compound: COCCNC(=O)C1CCCN(c2ncccn2)C1 (stereo not drawn)
## Result -0.539

## Task Moving on to the next compound: Cc1ccc(-c2noc(CCC(=O)N3CCN(c4cccc(C(F)(F)F)c4)CC3)n2)cc1
## Result -0.391

## Task Moving on to the next compound: COc1ccc2nc3oc(C(=O)NC4CCN(Cc5ccccc5)CC4)cc3cc2c1
## Result -0.122

## Task Moving on to the next compound: COCCOC(=O)c1[nH]c2c(c1C)C(=O)CC(c1ccco1)C2 (stereo not drawn)
## Result -0.568
